Origin of the recorded values: patent US20160347750A1

Please go through the items and note down their pIC50.
- Test system: NOMO1
- test_method_notes: Cell line IC50, NOMO1
- Format: cell-based
- run_parameters: NOMO1 (NOMO-1) cell line
pIC50 here is simply -log10 of the concentration when that concentration is written in mol/L.

stdin: Find the recorded pIC50 belonging to Cc1sc2c(c1C)C(c1ccc(Cl)cc1)=N[C@@H](CC(=O)OC(C)(C)C)c1nnc(C)n1-2 [JQ1, reference compound] and report it.
stdout: 6.76

stdin: Find the recorded pIC50 belonging to CC[C@@H]1C(=O)N(C)c2cnc(Nc3ccc(C(=O)NC4CCN(C)CC4)cc3OC3CCOCC3)nc2N1C1CCCC1 and report it.
stdout: 6.31
